biological target: T1, FcRn-p3 fusion protein (human, UniProt P55899 24-297; P61769 21-119); assay: phage ELISA pH6
T1 construct: baculovirus expressed; coated on ELISA wells; not shown: amino terminal part of bacteriophage p3 protein and CVDE protein
T1 sequence (P55899 24-297, chain 1 of 2): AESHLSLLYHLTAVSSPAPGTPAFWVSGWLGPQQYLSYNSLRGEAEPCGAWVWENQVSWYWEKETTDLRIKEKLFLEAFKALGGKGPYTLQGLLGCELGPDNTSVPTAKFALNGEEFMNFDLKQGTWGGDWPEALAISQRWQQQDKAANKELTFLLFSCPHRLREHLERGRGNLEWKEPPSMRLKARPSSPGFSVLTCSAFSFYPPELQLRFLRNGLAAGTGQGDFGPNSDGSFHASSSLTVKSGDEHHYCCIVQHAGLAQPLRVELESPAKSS
T1 sequence (P61769 21-119, chain 2 of 2): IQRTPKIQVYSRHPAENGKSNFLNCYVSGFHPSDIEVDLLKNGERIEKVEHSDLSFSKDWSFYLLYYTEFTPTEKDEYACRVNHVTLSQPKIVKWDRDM
Please go through the items and note down their Ratio/Fc-H.
Numbers only, in fold.

Previously resolved entries follow.
1. T7A_48 (other, EU numbering) CPPCTAPERLGGPSVFLFPPKPKDTLMISRTPEVTCVVVDVSHEDPEVKFNWYVDGVEVHNAKTKPREEQYNSTYRVVSVLTVLHQDWLDGKEYKCKVSNKALPVPIEKTISKAKGQPREPQVYTLPPSRDELTKNQVSLTCLVKGFYPSDIAVEWESNGQPENNYKTTPPVLDSDGSFFLYSKLTVDKSRWQQGNVFSCSVMHEALHYHYTQKSLSLSPGK; 3.6
2. T4A_31 (other, EU numbering) CPPCTAPELLGGPSVLLFPPKPKDTLMISRTPEVTCVVEDVSHEDPEVKFNWYVDGVEVHNAKTKPREEQYNSTYRVVSVLPVLHQDWLNGKEYKCKVSNKALPAPIEKTISKAKGQPREPQVYTLPPSRDELTKNQVSLTCLVKGFYPSDIVVEWESNGQPENNYKTTPPVLDSDGSFFLYSKLTVDKSRWQQGNVFSCSVMHEALHNHYTQKSLSLSPGK; 3.7
3. T5A_90 (other, EU numbering) CPPCPAPELLGGPSVFLFPPKPKDTLMISRTPEVTCVVVDVSHEDPEVKFNWYVDGVEVHNAKTKPREEQYNSTYRVVSVLTVLHQDWLDGKEYKCKVSNKALPVPIEKTISKAKGQPREPQVYTLPPSRDELTKNQVSLTCLVKGFYPSDIAVEWESNGQPENNYRTTPPVLDSDGSFFLYSKLTVDKSRWQQGNVFLCSVMHEALHYHYTQKSLSLSPGK; 1.8
4. C3A_08 (other, EU numbering) CPPCPAPELLGGPSVFLFPPKPKDTLMISRTPEVTCVVEDVSHEDPEVKFNWYVDGVEVHNAKTKPREEQYNSTYRVVSVLTVLHQDWLNGKEYKCKVSNKALPAPIEKTISKAKGQPREPQVYTLSPSRDELTKNQVSLTCLVKGFYPSDIVVEWESNGQPENNYKTTPPVLDSDGSFFLYSKLTVDKSRWQQGNVFSCSVMHEALHSHYTQKSLSLSPGK; 3

Okay, next one:
stdin: Given the binder C4A_18 (other, EU numbering) CPPCPAPELLGGPSVFLFPPKPKDTLMISRTPEVTCVVVDVSHEDPEVKFNWYVDGVEVHNAKTKPREEQYNSTYRVVSVLTVLHQDWLDGKEYKCKVSNKALPVPIEKTISKAKGQPREPQVYTLPPSRDELTKNQVSLTCLVKGFYPSDIVVEWESNGQPENNYKTTPPVLDSDGSFFLYSKLTVDKSRWQQGNVFSCSVMHEALHYHYTQKSLSLSPGK , write its reported Ratio/Fc-H.
stdout: 2.5
